Hi there, I'd appreciate the recorded protease stability score for every entry that follows.
test: protease stability score; higher = more stable; yeast display proteolysis, trypsin and chymotrypsin;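 also: log10 excess protease needed over predicted unfolded state with 0 meaning unfolded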
Reply with the value as a number alone.

The measured protease stability score associated with DEDKVNEFMRHFLDVFETGNEKDVKKMADPNAKIEYGDKTLHGRENLRKVIADWRKRVDRIQIEHVDLQGNKARIIVVLNINGRNIRVDIDVNVHNGEIKSIRFEFTDPKTLQRATS reads 0.649

The measured protease stability score associated with DEKKAEELAKKAFKYIENGDREEAQKMLKDNVEYHYANTTYHGKDAAKFVVDVVQKVGVEVKVQEQEVRGNTVRARFQYKNGDTEVETEVEVTYEGDRVKKAEVKLSEEVMKLVHQG reads 0.566

The measured protease stability score associated with DEDKTMRELIRRLDKNLKEGDPSKAREQADKDARANIGEKRVTGRKRLDEEVKTLLDSYDHIRVHLKEVRVENGSAVARVDYHYDQNGQEKSKEVILHARFQGDRLTLEQMTMP reads 0.043

The measured protease stability score associated with DKDALRVFERFLEAVETNDPKQVQEQADPNAHFDIGDRTYHGMDEIATKMFEEQEKIHLSVQIRDVKDHGDKAVIKAEFSSERNGKPHSKTVRIEVQAHNGQMVKLVMTDDQ reads -0.309

The measured protease stability score associated with DEDAQKTVRKFLENITTGNPENAEKLLDPNVHIHYGDKRVSGRDQFHREAKQKLHDMRLSIDIKEVQVQGNRIDVDVRFSVNHNGRPYTITAHLSIEMSNGHIEHMELRIDESDKRRQKR reads -0.237

The measured protease stability score associated with DTEVQQRVEHYLRLREYNSPEHLIEMVDPNAKIEIGNKEFHGMENYAHTMRKRVEEWRLEIKHISVTIRNGRVVARIDQEVDIDGNPVRYTYKVVYDAHNGNIKHIKNDVDPRQQQQQHK reads 0.176

The measured protease stability score associated with DEKKVKELIDQVVEAIQKGDVEHLLKLGKPDVTFTVGDVEIRGLEHLKKYYKQVKDDGAELHVKKVEVKGNTAQVHYDMKYGGTKATVTVNIEAKDHKVDRAEAKMDKDYLKYVRDG reads 0.644

The measured protease stability score associated with DTELKDQIKRFLSERNSGNPQKMVEQMDPNANMSVGDKSVRGREQVSEQAEREKRELHYRVRSVDISVNGDKVKVKINVEREHNGRPFTMTLDLTIRAHNGRLTRVEVSLSEDDKREIKR reads 0.521

The measured protease stability score associated with DEEKNQELLHHWLKQFSHGNTENLRKNVDKDVRVRVGDKVFNGRETAMRHWSEQVKQVDHVQINHVEVDGDSARADVVYVVNGRERRFEREATIKGDKFKEIEYRTN reads -0.248

The measured protease stability score associated with DNDTQHRLAERFNHAVETGDPDKIMKLVPEDVRFTVGDKEYHGRESLSKVIKDFRDHADRVKVESVRVNNGRIDVQMRYNRNGQDRVMTFLLTVHNGKIENVNIQSG reads 1.58

The measured protease stability score associated with DRRDLQLVERVLRALQTGDEDKVMENLDPNARVEYGDKEYHGREQLHEQIERDHRNMRFSIDVKRVDLHGDRAHFDATVTMNINGKPFEDRFHIDVVARNGRIKHLSMKMDPDRVKEVES reads -0.157

The measured protease stability score associated with DEKTAQDTAKEIVKYWEQGDFEKLNKNADKNVRIRYGDKDYSGRDNFQELQKKFREHVDHVEVHSVDVEGDKIRVVIMFVVNGKHMVMEFVVDYHNGHLKSVSVDARNPDQKKRADK reads 0.46

The measured protease stability score associated with DEELKERYERQEKAFENGDPDQAEDMMDPNVHVDVGNKELHGREEIVRDLHNVLQNWRFDRKVDSVNNRGDKLEVDAKQTLNVNGKPFHWHFTIVARAHNGKLKSQTVEMDPDTNRKIQS reads -0.057

The measured protease stability score associated with DEKDQTRKAEKAARIFQHGNPDDVREMADEDVKVQIGDNRINGRHNLDTEVKELRDRVDDAKIEDFRASGNTIVLHIRFVVDGVDVHITIHINYHNGKAKRIDVKYTDERQKRRQDS reads 0.739

The measured protease stability score associated with DEEDAHEQVHRIVKALETGDPDQVVNQADENVRIHVGEKTVHGQEKVREFVEEYNEQVDDVNVRHVSLDGNKATVTIDIDVNGNKRRVHFRFQFDNGRVQTIRVDTS reads 0.719

The measured protease stability score associated with EEKAEELVERFITAIETNDPDEVVNNIDPNARLRVGDKHVSGRDHQRQQVEEQERHMRVKYQHVRIDVTGDHARVHVVQVDNHNGKPRRFKYSASFVVQGDKIKHASQTTTE reads -0.163

The measured protease stability score associated with DDEIERTMKNLMEAFSEGDPDKFRRNADPNAKMNVGDKSFHGMDDFLHQLKQLNKQARIEIEHITVTAQGDHAEVHAQFVNTENGRPRTKRVVYRAEVRNGQAKSIKLEDTK reads 0.176

The measured protease stability score associated with DEQLVKILQRFRKAMEHGDPKEAQKYFDPNAEFVYGDKEIHGREQVNTWIHTFMRSIRVDIKSLTVRASGNKAHIQYSAVYEENGRPKTAHFHMTVQVTNGKIKHADVKYRG reads 1.1

The measured protease stability score associated with DEEVNHQMSRMWEANKRGDEHTLRELVDPNAKIDVGDKRVHGMEEYVKQVRNRREDLRWRFKIDHMSVDGDTVKFRARAVENENGRPQSYKFEQNVRVHNGKLTEQNQQDHG reads 0.181

The measured protease stability score associated with DEELVDQVKSFIELLQKGNEDELMKQLDEDAKIHYGDKTIHGREQVREWVKRFKDEMRQKIDSVQFREKPNRVSMKADMSYTQNGTPHDQQIDATFRAHNGRIKQVNIQLTK reads -0.084

The measured protease stability score associated with DKDAARRVQEMIRQQQTGNPTEVEEQADKDVEFKVGDKVVHGRRELKKEVETHKRESRLEVQKIEIKDHGDKAKLIIYFRVHENGEPRKRTVQVRAKYQNGKVKMIEVDSTK reads -0.006

The measured protease stability score associated with DDETLNELVETLMKAWNQGNPDDLNKLIDKDAKIIIGETHIHGRDEFRKWADTLHRQVDHYQFDSVTAHNGRVRMHMKLRVNGVNVVVHVKVQAHNGRIKRMRMRWRNEEDKKKVEQ reads 1.39
